biological target: Human leukocyte MPO (Homo sapiens); assay: MPO chlorinating activity assay (taurine chloramine/TMB); type: biochemical; design: Human leukocyte MPO (EC 1.7.1.11) was purchased from Planta Natural Products; purchased Planta Natural Products (Vienna, Austria); host or cells: human leukocytes; details: 10 nM MPO, 140 mM NaCl, pH 7.4
Threshold-based label: IC50 under 5 µM gives rule met, IC50 not under 5 µM gives rule not met.

INSERT INTO results (molecule, class_assignment) VALUES
  ('CCCOc1ccc(C2C(C#N)=C(N)SC(N)=C2C#N)cc1OC', 'rule not met'),
  ('CCCc1cc(=O)[nH]c(=S)[nH]1 [PTU, propylthiouracil, reference compound]', 'rule not met'),
  ('COc1ccc(C(=O)Nc2ccc(-c3nnc(S)o3)cc2)cc1', 'rule not met'),
  ('Nc1cc2c3c(cccc3c1)C(=O)N(N)C2=O', 'rule met'),
  ('CN1CCc2nc3sc(C(=O)Nc4cccc(C#N)c4)c(N)c3cc2C1', 'rule met');

###

target: Human leukocyte MPO (Homo sapiens); assay: MPO chlorinating activity assay (taurine chloramine/TMB); assay type: biochemical; set-up: Human leukocyte MPO (EC 1.7.1.11) was purchased from Planta Natural Products; purchased Planta Natural Products (Vienna, Austria); host or cells: human leukocytes; conditions: supplementary csv copy of Table 1; read-out: % Inhibition (Chlorinating)
In this section we review reported inhibition at 20 µM values for a set of compounds.
Assay metric: inhibition at 20 µM (%)

INSERT INTO results (compound, assay_result) VALUES
  ('CCOC(=O)C1=C(N)Oc2cc(O)ccc2C1c1ccc(F)cc1F (centres unmarked)', 40.1),
  ('CC1=Nc2ccc(Cl)cc2-c2[nH]c3ccccc3c2N1', 50.2),
  ('CCCOc1ccc(C2C(C#N)=C(N)SC(N)=C2C#N)cc1OC', 81),
  ('CC1CCCc2sc3nc(S)n(N)c(=O)c3c21 (centres unmarked)', 18.6),
  ('CN1CCc2nc3sc(C(=O)Nc4cccc(C#N)c4)c(N)c3cc2C1', 84.9),
  ('Nc1cc2c3c(cccc3c1)C(=O)N(N)C2=O', 86.5),
  ('O=C1ON=C(c2ccccc2)/C1=C\c1cccc(O)c1', 63),
  ('CCCc1cc(=O)[nH]c(=S)[nH]1 [PTU, propylthiouracil, reference compound]', 92.3),
  ('CCc1n[nH]c2c1C(c1ccc(O)c(OC)c1)C(C#N)=C(N)O2 (centres unmarked)', 57.8),
  ('CC1CCc2sc3c(c2C1)c1ncnn1c1nnc(S)n31 (centres unmarked)', 92),
  ('COc1ccc(C(=O)Nc2ccc(-c3nnc(S)o3)cc2)cc1', 73);

###

In this section we review reported inhibition at 20 µM values for a set of compounds.
biological target: Human leukocyte MPO (Homo sapiens, UniProt P05164); assay: MPO peroxidatic activity assay (AmplexRed oxidation); type: biochemical; design: Human leukocyte MPO (EC 1.7.1.11) was purchased from Planta Natural Products; purchased Planta Natural Products (Vienna, Austria); host or cells: human leukocytes; settings: 20 μM compound, 100 pM MPO, 30 μM AmplexRed, 2 μM H2O2, pH 7.4; read-out: % Inhibition (at 20 μM) Peroxidatic
Sequence (P05164 279-745 limits assumed): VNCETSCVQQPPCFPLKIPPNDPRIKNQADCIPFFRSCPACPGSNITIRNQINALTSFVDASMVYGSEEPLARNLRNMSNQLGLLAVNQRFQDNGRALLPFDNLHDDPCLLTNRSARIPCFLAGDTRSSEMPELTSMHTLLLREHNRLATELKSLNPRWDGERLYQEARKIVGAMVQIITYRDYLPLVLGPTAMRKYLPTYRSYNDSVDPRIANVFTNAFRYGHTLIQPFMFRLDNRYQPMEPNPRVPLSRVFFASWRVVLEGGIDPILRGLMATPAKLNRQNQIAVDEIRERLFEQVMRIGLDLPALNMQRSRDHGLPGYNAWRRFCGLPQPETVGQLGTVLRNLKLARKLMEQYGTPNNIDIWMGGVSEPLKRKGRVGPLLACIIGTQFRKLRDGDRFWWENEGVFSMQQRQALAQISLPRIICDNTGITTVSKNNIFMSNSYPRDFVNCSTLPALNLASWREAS
Sequence (P05164 165-278 limits assumed): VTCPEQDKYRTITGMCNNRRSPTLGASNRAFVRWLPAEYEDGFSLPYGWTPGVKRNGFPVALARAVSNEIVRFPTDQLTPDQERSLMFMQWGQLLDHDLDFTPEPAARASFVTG
Assay metric: inhibition at 20 µM (%)

INSERT INTO measurements (compound, assay_metric, assay_result) VALUES
  ('CCCOc1ccc(C2C(C#N)=C(N)SC(N)=C2C#N)cc1OC [RL26]', 'inhibition at 20 µM', 78.7),
  ('CCOC(=O)C(Cc1ccc(O)cc1)NC1=CC(=O)C(=O)c2ccccc21 (stereo not drawn) [RL16]', 'inhibition at 20 µM', 67.1),
  ('CCOC(=O)C1=C(N)Oc2cc(O)ccc2C1c1ccc(F)cc1F (stereo not drawn) [RL24]', 'inhibition at 20 µM', 59.1),
  ('N#CC1=C(N)Oc2c(c(=O)sc3ccccc23)C1c1ccc(F)cc1 (stereo not drawn) [RL20]', 'inhibition at 20 µM', 34),
  ('CC1=Nc2ccc(Cl)cc2-c2[nH]c3ccccc3c2N1 [RL1]', 'inhibition at 20 µM', 81),
  ('Nc1cc2c3c(cccc3c1)C(=O)N(N)C2=O [RL6]', 'inhibition at 20 µM', 73);
